Test system: ESCHERICHIA COLI H560
Assay: In vitro antibacterial activity, MIC, BHI agar dilution
Format: cell-based
Details: E. coli H560, unit assumed
MIC: recorded values
measure: MIC (µg/mL)

INSERT INTO assay_data (mol, study_target, unit_of_measure, relation_operator, recorded_measurement) VALUES
  ('CC[C@H]1OC(=O)[C@H](C)C(=O)[C@H](C)[C@@H](O[C@@H]2O[C@H](C)C[C@H](N(C)C)[C@H]2O)[C@](C)(OC)C[C@@H](C)C2=N[C@H](COCc3ccc(C(=O)OC)cc3)CN3C(=O)O[C@@]1(C)[C@H]3[C@H]2C', 'ESCHERICHIA COLI H560', 'µg/mL', '>', 100),
  ('CC[C@H]1OC(=O)[C@H](C)C(=O)[C@H](C)[C@@H](O[C@@H]2O[C@H](C)C[C@H](N(C)C)[C@H]2O)[C@](C)(OC)C[C@@H](C)C2=NC[C@H](COCc3cccc(F)c3)N3C(=O)O[C@@]1(C)[C@H]3[C@H]2C', 'ESCHERICHIA COLI H560', 'µg/mL', '=', 12.5),
  ('CC[C@H]1OC(=O)[C@H](C)C(=O)[C@H](C)[C@@H](O[C@@H]2O[C@H](C)C[C@H](N(C)C)[C@H]2O)[C@](C)(OC)C[C@@H](C)C2=NC[C@@H](Cc3ccccc3)N3C(=O)O[C@@]1(C)[C@H]3[C@H]2C', 'ESCHERICHIA COLI H560', 'µg/mL', '=', 3.1),
  ('CC[C@H]1OC(=O)[C@H](C)C(=O)[C@H](C)[C@@H](O[C@@H]2O[C@H](C)C[C@H](N(C)C)[C@H]2O)[C@](C)(OC)C[C@@H](C)C2=N[C@H](COCc3ccccc3)CN3C(=O)O[C@@]1(C)[C@H]3[C@H]2C', 'ESCHERICHIA COLI H560', 'µg/mL', '=', 100);

* * *

MIC: recorded values
System: PROVIDENCIA STUARTII CMX 640
Type: cell-based
Settings: P. stuartii CMX 640; BHI agar; unit assumed
measure: MIC

INSERT INTO results (compound, measure, recorded_measurement) VALUES
  ('CC[C@H]1OC(=O)[C@H](C)C(=O)[C@H](C)[C@@H](O[C@@H]2O[C@H](C)C[C@H](N(C)C)[C@H]2O)[C@](C)(OC)C[C@@H](C)C2=N[C@H](COCCN3CCOCC3)CN3C(=O)O[C@@]1(C)[C@H]3[C@H]2C', 'MIC', '> 100 µg/mL'),
  ('CC[C@H]1OC(=O)[C@H](C)C(=O)[C@H](C)[C@@H](O[C@@H]2O[C@H](C)C[C@H](N(C)C)[C@H]2O)[C@](C)(OC)C[C@@H](C)C2=NC3CN(S(=O)(=O)Cc4ccccc4[N+](=O)[O-])CC3N3C(=O)O[C@@]1(C)[C@H]3[C@H]2C (stereo partly shown)', 'MIC', '> 100 µg/mL'),
  ('CC[C@H]1OC(=O)[C@H](C)C(=O)[C@H](C)[C@@H](O[C@@H]2O[C@H](C)C[C@H](N(C)C)[C@H]2O)[C@](C)(OC)C[C@@H](C)C2=N[C@H](COCc3ccccc3Cl)CN3C(=O)O[C@@]1(C)[C@H]3[C@H]2C', 'MIC', '> 100 µg/mL'),
  ('CC[C@H]1OC(=O)[C@H](C)C(=O)[C@H](C)[C@@H](O[C@@H]2O[C@H](C)C[C@H](N(C)C)[C@H]2O)[C@](C)(OC)C[C@@H](C)C2=NC[C@H](Cc3cscn3)N3C(=O)O[C@@]1(C)[C@H]3[C@H]2C', 'MIC', '> 100 µg/mL');

* * *

The following compounds have recorded MIC on PROVIDENCIA STUARTII CMX 640.
measure: MIC

INSERT INTO measurements (compound, recorded_measurement) VALUES
  ('CC[C@H]1OC(=O)[C@H](C)C(=O)[C@H](C)[C@@H](O[C@@H]2O[C@H](C)C[C@H](N(C)C)[C@H]2O)[C@](C)(OC)C[C@@H](C)C2=N[C@H](CN3CCOCC3)CN3C(=O)O[C@@]1(C)[C@H]3[C@H]2C', '> 100 µg/mL'),
  ('CC[C@H]1OC(=O)[C@H](C)C(=O)[C@H](C)[C@@H](O[C@@H]2O[C@H](C)C[C@H](N(C)C)[C@H]2O)[C@](C)(OC)C[C@@H](C)C2=N[C@H](COCc3ccc(Cl)cc3)CN3C(=O)O[C@@]1(C)[C@H]3[C@H]2C', '> 100 µg/mL'),
  ('CC[C@H]1OC(=O)[C@H](C)C(=O)[C@H](C)[C@@H](O[C@@H]2O[C@H](C)C[C@H](N(C)C)[C@H]2O)[C@](C)(OC)C[C@@H](C)C2=N[C@H](CCOCc3ccccc3)CN3C(=O)O[C@@]1(C)[C@H]3[C@H]2C', '> 100 µg/mL'),
  ('CC[C@H]1OC(=O)[C@H](C)C(=O)[C@H](C)[C@@H](O[C@@H]2O[C@H](C)C[C@H](N(C)C)[C@H]2O)[C@](C)(OC)C[C@@H](C)C2=N[C@@H](C)[C@H](C)N3C(=O)O[C@@]1(C)[C@H]3[C@H]2C', '> 100 µg/mL'),
  ('CC[C@H]1OC(=O)[C@H](C)C(=O)[C@H](C)[C@@H](O[C@@H]2O[C@H](C)C[C@H](N(C)C)[C@H]2O)[C@](C)(OC)C[C@@H](C)C2=N[C@H](COCc3ccc(C(=O)OC)cc3)CN3C(=O)O[C@@]1(C)[C@H]3[C@H]2C', '> 100 µg/mL'),
  ('CC[C@H]1OC(=O)[C@H](C)C(=O)[C@H](C)[C@@H](O[C@@H]2O[C@H](C)C[C@H](N(C)C)[C@H]2O)[C@](C)(OC)C[C@@H](C)C2=NC[C@H](CO)N3C(=O)O[C@@]1(C)[C@H]3[C@H]2C', '> 100 µg/mL'),
  ('CC[C@H]1OC(=O)[C@H](C)C(=O)[C@H](C)[C@@H](O[C@@H]2O[C@H](C)C[C@H](N(C)C)[C@H]2O)[C@](C)(OC)C[C@@H](C)C2=N[C@@H](COCc3ccccc3)CN3C(=O)O[C@@]1(C)[C@H]3[C@H]2C', '> 100 µg/mL'),
  ('CC[C@H]1OC(=O)[C@H](C)C(=O)[C@H](C)[C@@H](O[C@@H]2O[C@H](C)C[C@H](N(C)C)[C@H]2O)[C@](C)(OC)C[C@@H](C)C2=NC3CNCC3N3C(=O)O[C@@]1(C)[C@H]3[C@H]2C (some centres unmarked)', '> 100 µg/mL'),
  ('CC[C@H]1OC(=O)[C@H](C)C(=O)[C@H](C)[C@@H](O[C@@H]2O[C@H](C)C[C@H](N(C)C)[C@H]2O)[C@](C)(OC)C[C@@H](C)C2=NC3CN(CC)CC3N3C(=O)O[C@@]1(C)[C@H]3[C@H]2C (some centres unmarked)', '> 100 µg/mL'),
  ('CC[C@H]1OC(=O)[C@H](C)C(=O)[C@H](C)[C@@H](O[C@@H]2O[C@H](C)C[C@H](N(C)C)[C@H]2O)[C@](C)(OC)C[C@@H](C)C2=NCC(COC(=O)c3cccc4[nH]ccc34)N3C(=O)O[C@@]1(C)[C@H]3[C@H]2C (some centres unmarked)', '> 100 µg/mL'),
  ('CC[C@H]1OC(=O)[C@H](C)C(=O)[C@H](C)[C@@H](O[C@@H]2O[C@H](C)C[C@H](N(C)C)[C@H]2O)[C@](C)(OC)C[C@@H](C)C2=NC3CN(C=O)CC3N3C(=O)O[C@@]1(C)[C@H]3[C@H]2C (some centres unmarked)', '> 100 µg/mL'),
  ('CCC1OC(=O)C(C)C(=O)C(C)C(OC2OC(C)CC(N(C)C)C2O)C(C)(OC)CC(C)C2=NC(CN)CN3C(=O)OC1(C)C3C2C (centres unmarked)', '> 100 µg/mL'),
  ('CC[C@H]1OC(=O)[C@H](C)C(=O)[C@H](C)[C@@H](O[C@@H]2O[C@H](C)C[C@H](N(C)C)[C@H]2O)[C@](C)(OC)C[C@@H](C)C2=N[C@@H]3CCCC[C@@H]3N3C(=O)O[C@@]1(C)[C@H]3[C@H]2C', '> 100 µg/mL'),
  ('CC[C@H]1OC(=O)[C@H](C)C(=O)[C@H](C)[C@@H](O[C@@H]2O[C@H](C)C[C@H](N(C)C)[C@H]2O)[C@](C)(OC)C[C@@H](C)C2=N[C@@H]3CCC[C@@H]3N3C(=O)O[C@@]1(C)[C@H]3[C@H]2C', '> 100 µg/mL'),
  ('CC[C@H]1OC(=O)[C@H](C)C(=O)[C@H](C)[C@@H](O[C@@H]2O[C@H](C)C[C@H](N(C)C)[C@H]2O)[C@](C)(OC)C[C@@H](C)C2=N[C@H](COCc3ccccc3Br)CN3C(=O)O[C@@]1(C)[C@H]3[C@H]2C', '> 100 µg/mL'),
  ('CC[C@H]1OC(=O)[C@H](C)C(=O)[C@H](C)[C@@H](O[C@@H]2O[C@H](C)C[C@H](N(C)C)[C@H]2O)[C@](C)(OC)C[C@@H](C)C2=N[C@@H]3COC[C@@H]3N3C(=O)O[C@@]1(C)[C@H]3[C@H]2C', '> 100 µg/mL'),
  ('CC[C@H]1OC(=O)[C@H](C)C(=O)[C@H](C)[C@@H](O[C@@H]2O[C@H](C)C[C@H](N(C)C)[C@H]2O)[C@](C)(OC)C[C@@H](C)C2=N[C@H](COCc3cccnc3)CN3C(=O)O[C@@]1(C)[C@H]3[C@H]2C', '> 100 µg/mL');
